Let's look at some molecules and their measured TGI.
- System: OVCAR-3 ovarian
- assay.comment: NCI tumour cell line growth inhibition, 48 h

Worked examples follow.
| molecule | TGI |
| --- | --- |
| COCCCNc1nc(N)c(C#N)c(C#N)c1C#N | > 10 µM |
| Cc1cc(N(CCC#N)CCC#N)ccc1/C=C(\NC(=O)/C=C/c1ccccc1)C(N)=O | > 100 µM |
| Clc1ccc(-c2cc3nc4ccccc4nc3o2)cc1 | > 100 µM |
| N#Cc1c(-c2ccccc2)[nH]c2ccc(Cl)cc2c1=O | > 100 µM |
| O=Cc1ccccc1COC(=O)c1cc(C(=O)OCc2ccccc2C=O)c(C(=O)OCc2ccccc2C=O)cc1C(=O)OCc1ccccc1C=O | > 100 µM |

Q: Which TGI reading was recorded for the molecule CC1CCCCNC1=S (stereo not drawn) ?
Result: > 10 µM

Q: Given the molecule COc1ccc(C(=O)c2cc(OC)c(OC)c(OC)c2)cc1/C=C/C(=O)c1ccc(F)cc1 , what is its reported TGI?
Result: 15.5 µM

Q: Need TGI of C=CCCCCC/C=C\[C@@H](O)C#CC#C/C=C/CO , thanks.
Result: > 100 µM

----------
Recorded TGI for the following molecules
- Test system: 786-0 renal
- assay.comment: NCI tumour cell line growth inhibition, 48 h

| molecule | assay.target | TGI |
| --- | --- | --- |
| CCOC(=O)C1SC(=Nc2ccc(C)c(C)c2)N=C1C (centres undefined) | 786-0 renal | > 100 µM |
| CC12OC(C(=O)C13CC3)C1C(=O)c3ccc4c(ccc5ccccc54)c3C(=O)C12 (centres undefined) | 786-0 renal | > 100 µM |
| Cc1ccc(N=C/C=C(\Nc2ccc(C)cc2)c2ccc(Cl)cc2)cc1 | 786-0 renal | 28.7 µM |
| COc1ccc(C(=O)c2cc(C)c(OC)c(C)c2)cc1OC(=O)CCl | 786-0 renal | > 100 µM |

Q: Form field: TGI recorded for CCOC(=O)Cc1nc2cc(F)c(F)cc2[nH]c1=O with 786-0 renal (enter value)
Result: > 100 µM

Q: Form: Entry = CCc1nc2cc(F)c(/C=C/C(=O)NO)cc2c(=O)n1CCc1ccccc1 | System = 786-0 renal | TGI = ____
Result: 2.03 µM

Q: Query for 786-0 renal: what TGI does the record show for O=C(O)CNS(=O)(=O)c1ccc(NC(=O)c2ccc([N+](=O)[O-])cc2)cc1 ?
Result: > 100 µM

Q: State its TGI on 786-0 renal: Cc1cc(NC(=S)SCc2ccc(F)cc2)c([N+](=O)[O-])cc1C
Result: > 100 µM

Q: Request body: readout TGI, system 786-0 renal, query Cc1nnc(NS(=O)(=O)c2ccc(N=Nc3cc(N=Nc4ccc(S(=O)(=O)Nc5nnc(C)s5)cc4)c4c(NC(=O)C(Cl)Cl)cccc4c3OC(=O)C(Cl)Cl)cc2)s1 (tested in a mixture with another compound) . Return the value.
Result: > 100 µM

----------
- Test system: HCT-15 colon
- assay.comment: NCI tumour cell line growth inhibition, 48 h
// label = 1 if TGI is not less than 30 µM, otherwise -1

Here's what some known entries look like.
| compound | assigned.label |
| --- | --- |
| COC(=O)C1=CS/C(=C2\S[C@@H]3[C@H](S2)[C@H]2C=C[C@@H]3C2)S1 | 1 |
| COC(=O)CC1N=C(NC#N)N(CCc2c[nH]c3ccccc23)C1=O (stereo not drawn) | 1 |
| CCOC(=O)C1CCN(S(=O)(=O)/N=C2/NC(=O)NC2=C(Cl)Cl)CC1 | -1 |

Q: Please tell me: is the compound C=C1C(=O)O[C@H]2[C@H]1CC/C(COC(=O)NCCCCNC(=O)OC/C1=C/CC[C@@]3(C)O[C@H]3[C@H]3OC(=O)C(=C)[C@@H]3CC1)=C\CC[C@@]1(C)O[C@@H]21 at or over 30 µM in terms of TGI?
Result: -1

Q: Would you say COc1ccccc1CNCCCN1C(=O)c2ccc3c4c(ccc(c24)C1=O)C(=O)N(CCCNCCNCCCN)C3=O shows TGI at minimum 30 µM?
Result: -1

Q: I'd appreciate it if you could say whether CCN(CC)CCSc1c2cc(OC)ccc2nc2ccc(OC)cc12 has TGI at least equal to 30 µM.
Result: 1

Q: Confirm if TGI reported for the compound O=c1cc(NCC(O)CN2CCCC2)n(Cc2ccccc2)c(=O)n1Cc1ccccc1 (stereo not drawn) is 30 µM or above.
Result: 1

Q: Determine whether this compound has TGI no lower than 30 µM: CCOC(=O)CCC(=O)C1c2cccc(O)c2C(=O)c2c(O)cc(C)cc21 (stereo not drawn)
Result: -1

Q: Does the reported TGI for CC1CC2=C(S(=O)(=O)c3ccccc3)CC(S(=O)(=O)c3ccccc3)(S(=O)(=O)c3ccccc3)CC21 (stereo not drawn) fall at or above the 30 µM mark?
Result: 1

Q: hey, is TGI for this one >= 30 µM? Cc1cc(C)c(NC(=O)c2sc3nc4c(cc3c2N)C(=O)CCC4)c(C)c1
Result: 1

Q: Decide: TGI of CCCCCCCCCCCC(=O)OCC(C[As](=O)(O)O)OC(=O)CCCCCCCCCCC (stereo not drawn) >= 30 µM?
Result: -1

Q: hey, is TGI for this one >= 30 µM? CNC(=S)/N=C(\N)N(C)C
Result: 1

Q: Tell me whether TGI is at least 30 µM here: c1ccc(Sc2ccc(Cc3nc4cc5ccccc5cc4[nH]3)cc2)cc1
Result: 1

Q: Decide: TGI of NC(=O)c1cc(Cl)ccc1NC(=O)/C=C/c1ccccc1 >= 30 µM?
Result: 1

Q: Hi team, for C=C(C)[C@H]1Cc2c(ccc3c2O[C@@H]2COc4cc(OC)c(OC)cc4[C@@H]2C3=O)O1 , is the recorded TGI at or above 30 µM?
Result: 1

Q: Identify whether the reported TGI of the following compound is 30 µM or greater: CCNCCNc1cc(-c2ccc(C(F)(F)F)cc2)c(C#N)c2nc3ccccc3n12
Result: -1

Q: Has O=C1c2cccnc2-c2nc(-c3ccc(Cl)cc3)cc3c2c1nc1ccccc13 a recorded TGI greater than or equal to 30 µM?
Result: 1

----------
- Tested on: SF-268 CNS
- assay.comment: NCI tumour cell line growth inhibition, 48 h; in the data active = GI50 below about 0.43 µM; inactive = the rest
Write down the outcome that applies. Available outcomes: active, inactive

Solved cases (5 shown):
| compound | assay.target | assigned.label |
| --- | --- | --- |
| CCCCC(CC)COC(=O)C[N+](C)(C)CCOC(c1ccccc1)c1ccccc1 (stereo unspecified) | SF-268 CNS | inactive |
| COc1ccc(-c2nc3ccccn3c2/C=C/C(=O)c2cc(OC)c(OC)c(OC)c2)cc1OC | SF-268 CNS | inactive |
| NC(=O)c1cc(Cl)ccc1NC(=O)/C=C/c1ccccc1 | SF-268 CNS | inactive |
| COCC[C@H]1CCC/C=C/[C@@H]2C[C@H](O)C[C@H]2[C@H](O)/C=C/C(=O)O1 | SF-268 CNS | active |
| Cc1cc2ncnn2cc1Nc1ncc2c(n1)n(C1CCOCC1)c(=O)n2C | SF-268 CNS | inactive |

Q: Would you mind telling me which call this test gave COc1cc2c(cc1OCCCCC(=O)Nc1cc3c4ccccc4ccc3c3ccccc13)N=C[C@@H]1CCCN1C2=O ?
Result: inactive

Q: Hi, do you know how COc1ccc(-c2[nH]c3ccc(OC)cc3c2/C=C(\C#N)S(=O)(=O)c2ccccc2)cc1 came out in this test?
Result: inactive

Q: Give the logged outcome of this assay for the following compound: O=c1cc(NCC(O)CN2CCCC2)n(Cc2ccccc2)c(=O)n1Cc1ccccc1 (stereo unspecified)
Result: inactive

Q: Short answer needed: outcome of this test for CCNCCNc1cc(-c2ccc(C(F)(F)F)cc2)c(C#N)c2nc3ccccc3n12 ?
Result: inactive

Q: Tell me the recorded outcome of this test for COc1ccc(C(=O)c2cc(C)c(OC)c(C)c2)c(OC)c1O .
Result: active

Q: What classification did Cc1cc(C)c(NC(=O)c2sc3nc4c(cc3c2N)C(=O)CCC4)c(C)c1 end up with in this test?
Result: inactive

----------
- Tested on: MALME-3M melanoma
- assay.comment: NCI tumour cell line growth inhibition, 48 h
value.kind: TGI (µM)
Give the value, in units of µM, as a plain number.

Q: Need TGI of COc1cc2[nH]c3c(c2cc1OC)CCN[C@]31CC[C@]2(CC3c4c(cc(OC)c(O)c42)CCN3C)C[C@H]1OC (some centres undefined) , thanks.
Result: 36.3

Q: Would you mind telling me what TGI value was observed for Cc1ccc2c3c1O[C@H]1c4[nH]c5ccccc5c4C[C@@]4(O)[C@@H](C2)N(CC2CC2)CC[C@]314 ?
Result: 28.4

Q: Can you look up the measured TGI of CN(C)CCC1(C2=CCCC2)CC/C(=C\c2ccc(Cl)cc2)C1=O (centres undefined) for me?
Result: 15.4

Q: Name the recorded TGI for COc1cc(OC)c(C(=O)/C=C/c2cccc(C(F)(F)F)c2)c(OC)c1 .
Result: 8.3

Q: Requested field: TGI. Item: COc1cc(/C=C/c2ccc(OC)c(O)c2)cc(OC)c1
Result: 38
